Assay: Inhibition of Bakers yeast alpha-glucosidase using p-Nitrophenyl alpha-D-glucopyranoside as substrate
Set-up: species or system Saccharomyces cerevisiae

# compound, Ki (µM)
measured = [
    ("OC[C@H]1NC[C@H](O)[C@@H](O)[C@@H]1O [DUVOGLUSTAT]", 25),
]

----------
Molecular target: UniProt:O42275
Sequence (O42275 whole entry): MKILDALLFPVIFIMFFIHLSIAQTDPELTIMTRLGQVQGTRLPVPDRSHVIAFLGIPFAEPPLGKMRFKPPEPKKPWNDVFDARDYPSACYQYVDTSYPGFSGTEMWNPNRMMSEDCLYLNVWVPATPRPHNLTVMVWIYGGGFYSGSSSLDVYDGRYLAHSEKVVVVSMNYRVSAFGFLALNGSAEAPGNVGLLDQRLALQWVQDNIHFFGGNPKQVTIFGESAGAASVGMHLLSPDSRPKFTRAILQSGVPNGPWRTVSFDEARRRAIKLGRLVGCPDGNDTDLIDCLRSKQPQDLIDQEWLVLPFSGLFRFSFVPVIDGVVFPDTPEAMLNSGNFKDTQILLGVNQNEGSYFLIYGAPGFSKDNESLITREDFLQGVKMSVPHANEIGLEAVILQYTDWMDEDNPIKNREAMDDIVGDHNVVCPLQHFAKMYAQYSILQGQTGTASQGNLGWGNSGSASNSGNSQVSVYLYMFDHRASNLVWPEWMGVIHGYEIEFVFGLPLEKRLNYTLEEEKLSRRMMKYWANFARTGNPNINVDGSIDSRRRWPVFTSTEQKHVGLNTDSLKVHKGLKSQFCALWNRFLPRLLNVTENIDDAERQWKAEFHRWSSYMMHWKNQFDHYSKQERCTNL
Experiment: Mixed-type inhibition of electric eel acetylcholinesterase assessed as enzyme-inhibitor complex by Lineweaver-Burk plot method
Ki values by entry

# molecule-smiles, units-label, Ki
measured = [
    ("OC[C@@H]1[C@@H](O)[C@H](O)[C@@H](O)CN1CCCCCNC(=[Se])Nc1ccc(Br)cc1", "µM", 5.8),
    ("Cc1ccc(NC(=[Se])NCCCCCN2C[C@H](O)[C@@H](O)[C@H](O)[C@H]2CO)cc1", "µM", 105),
    ("COc1ccc(NC(=[Se])NCCCCCN2C[C@H](O)[C@@H](O)[C@H](O)[C@H]2CO)cc1", "µM", 83.1),
]

----------
Experiment: Inhibition of almond beta-glucosidase using p-Nitrophenyl beta-D-glucopyranoside as substrate
Parameters: species or system Prunus dulcis
pKi: −log10 of the molar value.
measure-name: pKi

# molecule, result
measured = [
    ("OC[C@H]1NC[C@H](O)[C@@H](O)[C@@H]1O [DUVOGLUSTAT]", 4.33),
]

----------
Target: Alpha-mannosidase (Canavalia ensiformis)
Sequence (C0HJB3 whole entry): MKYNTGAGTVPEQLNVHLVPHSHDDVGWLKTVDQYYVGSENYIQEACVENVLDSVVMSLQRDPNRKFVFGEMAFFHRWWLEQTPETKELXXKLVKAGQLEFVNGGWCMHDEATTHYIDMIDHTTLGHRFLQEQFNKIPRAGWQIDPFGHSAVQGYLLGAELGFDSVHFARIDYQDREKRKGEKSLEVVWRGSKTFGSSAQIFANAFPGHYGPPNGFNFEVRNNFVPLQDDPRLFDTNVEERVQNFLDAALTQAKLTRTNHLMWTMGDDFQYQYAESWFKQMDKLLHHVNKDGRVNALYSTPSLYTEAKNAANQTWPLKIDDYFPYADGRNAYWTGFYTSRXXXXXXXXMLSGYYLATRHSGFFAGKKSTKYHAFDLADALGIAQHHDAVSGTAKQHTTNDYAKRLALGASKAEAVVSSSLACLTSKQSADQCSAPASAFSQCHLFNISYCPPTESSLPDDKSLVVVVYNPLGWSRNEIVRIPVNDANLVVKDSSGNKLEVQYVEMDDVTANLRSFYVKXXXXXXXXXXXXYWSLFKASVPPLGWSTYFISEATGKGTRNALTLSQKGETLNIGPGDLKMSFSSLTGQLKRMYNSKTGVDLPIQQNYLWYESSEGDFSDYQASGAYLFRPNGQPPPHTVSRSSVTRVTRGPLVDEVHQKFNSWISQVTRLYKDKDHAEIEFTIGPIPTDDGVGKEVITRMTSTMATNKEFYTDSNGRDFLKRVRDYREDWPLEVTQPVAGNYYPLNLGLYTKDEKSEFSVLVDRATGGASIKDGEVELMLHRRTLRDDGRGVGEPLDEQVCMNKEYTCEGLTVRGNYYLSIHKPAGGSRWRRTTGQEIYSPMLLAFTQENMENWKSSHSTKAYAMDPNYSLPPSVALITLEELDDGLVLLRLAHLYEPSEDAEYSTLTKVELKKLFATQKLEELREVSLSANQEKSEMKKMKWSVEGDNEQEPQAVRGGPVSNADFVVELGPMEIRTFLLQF
Experiment: Mixed-type inhibition of jack bean alpha-mannosidase assessed as enzyme-inhibitor complex using o-orp-nitrophenyl-glycopyranoside as substrate by Lineweaver-Burk plot method
pKi: −log10 of the molar value.

# molecule-smiles, pKi
records = [
    ("OC[C@@H]1[C@@H](O)[C@H](O)[C@@H](O)CN1CCCCCNC(=[Se])Nc1ccc(Br)cc1", 3.41),
]

----------
Target: UniProt C0HJB3
Sequence (C0HJB3 whole entry): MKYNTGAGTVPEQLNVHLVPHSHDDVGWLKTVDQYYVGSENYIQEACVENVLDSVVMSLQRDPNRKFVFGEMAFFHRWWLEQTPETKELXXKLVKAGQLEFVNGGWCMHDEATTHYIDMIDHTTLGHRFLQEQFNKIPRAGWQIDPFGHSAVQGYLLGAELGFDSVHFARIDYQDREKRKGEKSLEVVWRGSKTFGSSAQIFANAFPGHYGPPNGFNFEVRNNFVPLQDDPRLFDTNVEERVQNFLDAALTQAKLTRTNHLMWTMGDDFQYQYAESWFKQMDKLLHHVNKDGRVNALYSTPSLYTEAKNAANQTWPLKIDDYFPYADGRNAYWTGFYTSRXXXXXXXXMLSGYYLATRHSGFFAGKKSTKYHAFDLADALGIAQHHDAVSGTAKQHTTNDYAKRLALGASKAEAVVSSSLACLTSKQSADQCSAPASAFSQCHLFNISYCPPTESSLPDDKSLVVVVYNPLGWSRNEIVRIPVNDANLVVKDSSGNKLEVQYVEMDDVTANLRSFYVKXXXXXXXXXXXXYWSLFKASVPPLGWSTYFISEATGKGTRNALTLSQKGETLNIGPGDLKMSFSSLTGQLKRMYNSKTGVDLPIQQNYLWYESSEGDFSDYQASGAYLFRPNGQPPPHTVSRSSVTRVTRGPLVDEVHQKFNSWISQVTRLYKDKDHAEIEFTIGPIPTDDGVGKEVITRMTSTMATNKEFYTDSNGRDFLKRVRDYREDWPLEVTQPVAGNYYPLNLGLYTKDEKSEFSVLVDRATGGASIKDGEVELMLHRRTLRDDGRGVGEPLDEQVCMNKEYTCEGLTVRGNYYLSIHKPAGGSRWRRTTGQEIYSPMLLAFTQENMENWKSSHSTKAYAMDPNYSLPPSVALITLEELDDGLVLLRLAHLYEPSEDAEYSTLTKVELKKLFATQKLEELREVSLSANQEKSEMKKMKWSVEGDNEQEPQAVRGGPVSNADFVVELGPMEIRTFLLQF
Assay: Inhibition of jack bean alpha-mannosidase using o-orp-nitrophenyl-glycopyranoside as substrate by Lineweaver-Burk plot method

# molecule-smiles, Ki / µM
records = [
    ("COc1ccc(NC(=[Se])NCCCCCN2C[C@H](O)[C@@H](O)[C@H](O)[C@H]2CO)cc1", 510),
]
